testSystem: GTP:AMP phosphotransferase AK3, mitochondrial (Rattus norvegicus)
assayInfo: Inhibition index was the ratio between KM of AMP and Ki of AK III
Format: functional
reportedEndpoint: Inhibition index
Answers are plain numbers.

molecule: C=CC[C@]1(COP(=O)(O)O)OC(n2cnc3c(N)ncnc32)[C@H](O)[C@@H]1O (stereo partly specified)
testSystem: GTP:AMP phosphotransferase AK3, mitochondrial (Rattus norvegicus)
Inhibition index: 0.12

molecule: CNc1nc(N)c2ncn([C@@H]3O[C@H](COP(=O)(O)O)[C@@H](O)[C@H]3O)c2n1
testSystem: GTP:AMP phosphotransferase AK3, mitochondrial (Rattus norvegicus)
Inhibition index: 0.022

molecule: CN(C)c1nc(N)c2ncn(C3O[C@H](COP(=O)(O)O)[C@@H](O)[C@H]3O)c2n1 (stereo partly specified)
testSystem: GTP:AMP phosphotransferase AK3, mitochondrial (Rattus norvegicus)
Inhibition index: 0.017

molecule: C[C@@H]1[C@H](O)[C@@H](COP(=O)(O)O)O[C@H]1n1cnc2c(N)ncnc21
testSystem: GTP:AMP phosphotransferase AK3, mitochondrial (Rattus norvegicus)
Inhibition index: 0.1

molecule: CC1(C)O[C@@H]2[C@H](O1)[C@@H](COP(=O)(O)O)O[C@H]2n1cnc2c(N)ncnc21
testSystem: GTP:AMP phosphotransferase AK3, mitochondrial (Rattus norvegicus)
Inhibition index: 0.044

molecule: C[C@H](OP(=O)(O)O)[C@H]1OC(n2cnc3c(N)ncnc32)[C@H](O)[C@@H]1O (stereo partly specified)
testSystem: GTP:AMP phosphotransferase AK3, mitochondrial (Rattus norvegicus)
Inhibition index: 0.1

molecule: CCC[C@H](OP(=O)(O)O)[C@H]1OC(n2cnc3c(N)ncnc32)[C@H](O)[C@@H]1O (stereo partly specified)
testSystem: GTP:AMP phosphotransferase AK3, mitochondrial (Rattus norvegicus)
Inhibition index: 0.096

molecule: CCC[C@@H](OP(=O)(O)O)[C@H]1OC(n2cnc3c(N)ncnc32)[C@H](O)[C@@H]1O (stereo partly specified)
testSystem: GTP:AMP phosphotransferase AK3, mitochondrial (Rattus norvegicus)
Inhibition index: 0.021

molecule: Nc1nc(N)c2ncn([C@@H]3O[C@H](COP(=O)(O)O)[C@@H](O)[C@H]3O)c2n1
testSystem: GTP:AMP phosphotransferase AK3, mitochondrial (Rattus norvegicus)
Inhibition index: 0.042

molecule: Nc1ncnc2c1ncn2[C@@H]1O[C@H](/C=C/P(=O)(O)O)[C@@H](O)[C@H]1O
testSystem: GTP:AMP phosphotransferase AK3, mitochondrial (Rattus norvegicus)
Inhibition index: 0.057

Let me know recorded Inhibition index for CC[C@@H](OP(=O)(O)O)[C@H]1OC(n2cnc3c(N)ncnc32)[C@H](O)[C@@H]1O (stereo partly specified) , thanks.
0.015

Just for reference, ChEMBL document CHEMBL1122090 is where these values come from.
